For each entry below, report its Antibacterial rate (%) value.
tested on: E. coli (ATCC 25922); assay: Evaluation of antibacterial property against E. coli (absorbance at 600 nm); format: cell-based, Escherichia coli; conditions: injection amount of compound 0.01 g in 25 mL nutrient broth with E. coli ATCC 25922 at 3000 CFU/mL; 16 hours at 35° C.; absorbance at 600 nm vs pure culture medium
Give bare numbers, in %.

Before answering, review these 6 worked examples.
> print(dat)
                                   compound                  metric  number
1        C=C(C)C(=O)OCC[N+](C)(C)CCCCCCCCCC  Antibacterial rate (%)    95.3
2  C=CC(=O)OCC[N+](C)(C)CCCCCCCC [Compound E, reference compound]  Antibacterial rate (%)    62.3
3  C=CC(=O)OCC[N+](C)(C)CCCCCCCC [Compound 6]  Antibacterial rate (%)    70.6
4  C=C(C)C(=O)OCC[N+](C)(C)CCCCCCCC [Compound B, reference compound]  Antibacterial rate (%)    69.2
5         C=CC(=O)OCC[N+](C)(C)CCCCCCCCCCCC  Antibacterial rate (%)    97.3
6           C=CC(=O)OCC[N+](C)(C)CCCCCCCCCC  Antibacterial rate (%)    95.8

**Query** I am curious: what Antibacterial rate (%) value has been reported for `C=C(C)C(=O)OCC[N+](C)(C)CCCCCCCCCCCC` ?
**Result** 98.1
